- SYSTEM NAME: yeast carboxypeptidase Y (CPD-Y), wild type (SEQ ID NO:32) (Saccharomyces cerevisiae)
- Construct: purchased Carlbiotech, Copenhagen, Denmark
- Sequence (P00729 112-532): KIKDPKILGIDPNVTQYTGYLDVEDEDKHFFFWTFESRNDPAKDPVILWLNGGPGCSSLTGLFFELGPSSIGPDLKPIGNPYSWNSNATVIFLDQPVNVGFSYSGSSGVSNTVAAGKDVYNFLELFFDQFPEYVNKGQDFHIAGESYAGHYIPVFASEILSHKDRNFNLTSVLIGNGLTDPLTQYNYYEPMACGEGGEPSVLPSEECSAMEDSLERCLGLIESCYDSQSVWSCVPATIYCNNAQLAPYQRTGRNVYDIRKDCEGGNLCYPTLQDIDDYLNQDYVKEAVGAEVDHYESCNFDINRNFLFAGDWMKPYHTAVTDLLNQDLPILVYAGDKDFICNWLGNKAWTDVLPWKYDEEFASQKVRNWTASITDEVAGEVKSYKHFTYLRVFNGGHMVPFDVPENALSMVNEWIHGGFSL
- METHOD: Aminolysis of ester/peptide substrates; KN(app) of nucleophile
- Assay type: biochemical
- CONDITION INFO: Table VI; substance of the line is the substrate (leaving group varied), pH 7.5

{"COMPOUND": "C[C@H](NC(=O)C=Cc1ccco1)C(=O)N[C@@H](Cc1ccccc1)C(=O)O [FA--Ala--Phe--OH, FA-Ala-Phe-OH]", "SYSTEM NAME": "yeast carboxypeptidase Y (CPD-Y), wild type (SEQ ID NO:32) (Saccharomyces cerevisiae)", "UNITS OF MEASURE": "mM", "Kn,app (H-Val-NH2 as nucleophile)": 1.1}
{"COMPOUND": "CC(C)C[C@H](NC(=O)[C@H](C)NC(=O)C=Cc1ccco1)C(=O)O [FA--Ala--Leu--OH, FA-Ala-Leu-OH]", "SYSTEM NAME": "yeast carboxypeptidase Y (CPD-Y), wild type (SEQ ID NO:32) (Saccharomyces cerevisiae)", "UNITS OF MEASURE": "mM", "Kn,app (H-Val-NH2 as nucleophile)": 1.6}
{"COMPOUND": "CC(C)[C@H](NC(=O)[C@H](C)NC(=O)C=Cc1ccco1)C(=O)O [FA--Ala--Val--OH, FA-Ala-Val-OH]", "SYSTEM NAME": "yeast carboxypeptidase Y (CPD-Y), wild type (SEQ ID NO:32) (Saccharomyces cerevisiae)", "UNITS OF MEASURE": "mM", "Kn,app (H-Val-NH2 as nucleophile)": 1.5}
{"COMPOUND": "C[C@H](NC(=O)[C@H](C)NC(=O)C=Cc1ccco1)C(=O)O [FA--Ala--Ala--OH, FA-Ala-Ala-OH]", "SYSTEM NAME": "yeast carboxypeptidase Y (CPD-Y), wild type (SEQ ID NO:32) (Saccharomyces cerevisiae)", "UNITS OF MEASURE": "mM", "Kn,app (H-Val-NH2 as nucleophile)": 1.8}
{"COMPOUND": "C[C@H](NC(=O)C=Cc1ccco1)C(=O)OCc1ccccc1 [FA--Ala--OBzl, FA-Ala-OBzl]", "SYSTEM NAME": "yeast carboxypeptidase Y (CPD-Y), wild type (SEQ ID NO:32) (Saccharomyces cerevisiae)", "UNITS OF MEASURE": "mM", "Kn,app (H-Val-NH2 as nucleophile)": 1.7}
